// provenance: patent US11746087B1

Assay: Mouse PK study (IV and PO), plasma parent compound and psilocin by LC-MS/MS
Assay type: in vivo
Settings: male, C57Bl/6, mouse, plasma, oral, 3 mg/kg, 3 mg/kg oral C(I); 0.25 h; Mean ± SD; read-out: Plasma concentration of C(I)
Source text: Briefly, the procedure was as follows. […] 19, 2022.
metric: concentration at 0.25 h
Express the reported value numerically, then name its unit.

# concentration at 0.25 h (molecule: `CN(C)CCc1c[nH]c2cccc(OC(=O)c3ccc(Br)cc3)c12` ) is 2.03 ng/mL

* * *

Assay: Mouse PK study (IV and PO), plasma parent compound and psilocin by LC-MS/MS
Assay type: in vivo
Settings: male, C57Bl/6, mouse, plasma, oral, 10 mg/kg, 10 mg/kg oral C(I); 8 h; Mean ± SD; read-out: Plasma concentration of C(I)
metric: concentration at 8 h (ng/mL)
# value in ng/mL; strip the unit string

# concentration at 8 h (compound: `CN(C)CCc1c[nH]c2cccc(OC(=O)c3ccc(Br)cc3)c12` ) is 0.545
